Reported kinase still bound, per cent of control values for a set of molecules
# assayed_system: PLK3 (human)
# protocol_details: KINOMEscan competition binding
# condition_info: compound 10.0 µM
Just the number please, in %, no unit attached.

# count of solved cases: 4
I would be grateful if you could share the reported kinase still bound, per cent of control for `O=C(NOC[C@H](O)CO)c1ccc(F)c(F)c1Nc1ccc(I)cc1F` .
100

Ok, now `O=C(NC1CC1)c1cccc(-c2ccc3c(NC(=O)C4CC4)n[nH]c3c2)c1`
100

Ok, now `COc1cc(N2CCN(C)CC2)ccc1Nc1nc(N)c(C(=O)c2c(Cl)cccc2Cl)s1`
88

Ok, now `O=C1Nc2ccc(I)cc2/C1=C/c1cc(Br)c(O)c(Br)c1`
86

# input for lookup
I would be grateful if you could share the reported kinase still bound, per cent of control for `CCOc1cc2ncc(C#N)c(Nc3ccc(OCc4ccccn4)c(Cl)c3)c2cc1NC(=O)/C=C/CN(C)C` .
94
